Taken from patent US20210388087A1.

Recorded KD ratio to GLS3000, one value per entry.
target: T1, CD3 epsilon homodimer protein (UniProt P07766 23-126); test: SPR, antibody over immobilised CD3e homodimer;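 also: SPR at 25 °C with CD3 epsilon homodimer amine-coupled to a CM4 sensor chip and antibody flowed over as analyte in HBS-EP+ running buffer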
T1 construct: also called CD3 (CD3 epsilon)
T1 sequence (P07766 23-126): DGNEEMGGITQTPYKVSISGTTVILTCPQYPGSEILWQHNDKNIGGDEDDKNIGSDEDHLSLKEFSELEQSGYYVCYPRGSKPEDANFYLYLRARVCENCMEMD
Enter a number only.

>>> numeric_value("CE115HA000/GLS3000 S56H (antibody, IgG1, name in Kabat numbering, V domains shown, one-arm IgG1) VH: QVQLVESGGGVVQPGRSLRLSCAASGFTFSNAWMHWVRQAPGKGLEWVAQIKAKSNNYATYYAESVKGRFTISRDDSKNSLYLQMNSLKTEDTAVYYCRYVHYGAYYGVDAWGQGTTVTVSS VL: DIVMTQSPLSLPVTPGEPASISCRSSQSLVHSNRNTYLHWYQQKPGQAPRLLIYKVSNRFHGVPDRFSGSGSGTDFTLKISRVEAEDVGVYYCGQGTQVPYTFGQGTKLEIK")
0.96

For record CE115HA000/GLS3000 Q93Y (antibody, IgG1, name in Kabat numbering, V domains shown, one-arm IgG1) VH: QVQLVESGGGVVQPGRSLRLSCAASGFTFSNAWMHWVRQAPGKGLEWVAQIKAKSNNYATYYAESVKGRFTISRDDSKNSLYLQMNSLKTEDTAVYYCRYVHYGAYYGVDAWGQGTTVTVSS VL: DIVMTQSPLSLPVTPGEPASISCRSSQSLVHSNRNTYLHWYQQKPGQAPRLLIYKVSNRFSGVPDRFSGSGSGTDFTLKISRVEAEDVGVYYCGQGTYVPYTFGQGTKLEIK the listed KD ratio to GLS3000 is 0.76
